# tested_target: T1, PscG (Pseudomonas aeruginosa, UniProt P95435 1-115)
# T1 sequence (looked up): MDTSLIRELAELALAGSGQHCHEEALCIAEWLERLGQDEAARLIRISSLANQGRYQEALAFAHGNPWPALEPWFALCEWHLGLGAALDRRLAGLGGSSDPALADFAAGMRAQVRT
# procedure_text: fluorescence polarisation
Where no end group is shown, it is not given here.
measure_name: Kd (µM)
Answers are plain numbers, in µM.

Q. I am curious: what Kd value has been reported for TVTRALRDLMQGILQKI (peptide, UniProt P95434 69-85, looked up, also: fluorescein (FAM) label) [^FAMPscF^69–85] ?
A. 10.8

This collection of values is drawn from paper PMC6662154.
